Biological target: human SPNS2 (Homo sapiens, UniProt Q8IVW8)
Assay: S1P transporter assay: growth of S. cerevisiae strain with forced expression of a mammalian SphK and human SPNS2
Conditions: in vitro inhibition of SPNS2; growth of S. cerevisiae strain expressing mammalian SphK and human SPNS2; compounds as their pharmaceutical salts
pIC50: −log10 of the molar value. Structures can show the parent of a compound that is named as a salt.
Can you tell me pIC50 for the items I'm about to list?

Use these answered entries as a reference point.
molecule="CCCCCCCCNc1ccc(-c2noc([C@@H]3CCN(C(=N)N)C3)n2)cn1 [Compound 15b, hydrochloride]" measuredattribute=pIC50 experimentalresult="< 5.70"
molecule="CCCCCCCCCCCc1ccc(-c2noc([C@@H]3CCCNC3)n2)cc1C(F)(F)F [Compound 28f, hydrochloride]" measuredattribute=pIC50 experimentalresult="< 5.70"
molecule="C/C(=N\\OCCCCc1ccccc1)c1ccc(-c2noc([C@@H]3CCN(C(=N)N)C3)n2)cc1 [Compound 40a, hydrochloride]" measuredattribute=pIC50 experimentalresult="≥ 5.70"
molecule="N=C(N)N1CC(c2nc(-c3ccc(OCCCc4ccccc4)cc3)no2)C1 [Compound 15j, hydrochloride]" measuredattribute=pIC50 experimentalresult="< 5.70"
molecule="CCCCCCCCCc1ccc(-c2noc([C@@H]3CCCN(C(=N)N)C3)n2)cc1C(F)(F)F [Compound 30d, hydrochloride]" measuredattribute=pIC50 experimentalresult="≥ 5.70"
molecule="C/C(=N\\OCc1ccc(F)cc1)c1ccc(-c2noc([C@@H]3CCN(C(=N)N)C3)n2)cc1 [Compound 40m, hydrochloride]" measuredattribute=pIC50 experimentalresult="< 5.70"
molecule="CC(C)(C)c1cccc(Nc2ccc(-c3noc([C@@H]4CCN(C(=N)N)C4)n3)cn2)c1 [Compound 15g, hydrochloride]" measuredattribute=pIC50 experimentalresult="< 5.70"
molecule="Brc1ccc(Br)c(Nc2ccc(-c3noc([C@@H]4CCNC4)n3)cn2)c1 [Compound 13f, hydrochloride]" measuredattribute=pIC50 experimentalresult="< 5.70"
molecule="CCCCCCCCNC(=O)c1ccc(-c2noc([C@@H]3CCN(C(=N)N)C3)n2)cc1 [Compound 40p, hydrochloride]" measuredattribute=pIC50 experimentalresult="< 5.70"
molecule="CCCCCCCCCCCc1ccc(-c2noc([C@@H]3CCCN(C(=N)N)C3)n2)cc1C(F)(F)F [Compound 30f, hydrochloride]" measuredattribute=pIC50 experimentalresult="< 5.70"

Batch request: pIC50 for each of the following molecules.
1. CCCCCCCCCCc1ccc(-c2noc(C[C@@H]3CCN(C(=N)N)C3)n2)cc1C(F)(F)F [Compound 30g, hydrochloride]
2. CCCCCCCCCCc1ccc(-c2noc(C3CN(C(=N)N)C3)n2)cc1 [Compound 7b, hydrochloride]
3. CCCCCCCCc1ccc(-c2noc(C3CN(C(=N)N)C3)n2)cc1 [Compound 7d, hydrochloride]
4. CCCCCCCOc1ccc(-c2noc([C@@H]3CCCN(C(=N)N)C3)n2)cc1C(F)(F)F [Compound 23c, hydrochloride]

1: < 5.70; 2: ≥ 5.70; 3: < 5.70; 4: ≥ 5.70

====

Biological target: human SPNS2 (Homo sapiens)
Test: S1P transporter assay: growth of S. cerevisiae strain with forced expression of a mammalian SphK and human SPNS2
Details: in vitro inhibition of SPNS2; growth of S. cerevisiae strain expressing mammalian SphK and human SPNS2; compounds as their pharmaceutical salts
Where a name gives a salt, the structure may show the parent alone.
Please provide measured IC50 for the entries that follow.

Here are 5 compounds together with their reported answers.
compound="CCCCCCCCOc1ccc(-c2noc(C3CN(C(=N)N)C3)n2)cc1C(F)(F)F [Compound 23a, hydrochloride]" target="human SPNS2 (Homo sapiens)" measuredattribute=IC50 experimentalresult="≤ 2 µM"
compound="C/C(=N\\OCc1ccc(-c2ccccc2)cc1)c1ccc(-c2noc([C@@H]3CCN(C(=N)N)C3)n2)cc1 [Compound 40d, hydrochloride]" target="human SPNS2 (Homo sapiens)" measuredattribute=IC50 experimentalresult="≤ 2 µM"
compound="CCCCCCCCNc1ccc(-c2noc([C@@H]3CCNC3)n2)cn1 [Compound 13b, hydrochloride]" target="human SPNS2 (Homo sapiens)" measuredattribute=IC50 experimentalresult="> 2 µM"
compound="CCCCCCCCCCc1ccc(-c2noc([C@H]3CCCNC3)n2)cc1 [Compound 5f, 2,2,2-trifluoroacetate]" target="human SPNS2 (Homo sapiens)" measuredattribute=IC50 experimentalresult="> 2 µM"
compound="c1cc(N2CCOCC2)ncc1-c1noc([C@@H]2CCNC2)n1 [Compound 13d, hydrochloride]" target="human SPNS2 (Homo sapiens)" measuredattribute=IC50 experimentalresult="> 2 µM"

For each entry beneath this line, provide reported IC50.
1. CCCCCCCCCCCc1ccc(-c2noc([C@@H]3CCCN(C(=N)N)C3)n2)cc1 [Compound 7ya, hydrochloride]
2. CCCCCCCCCCOc1ccc(-c2noc([C@@H]3CCCN(C(=N)N)C3)n2)cc1C(F)(F)F [Compound 23f, hydrochloride]

1: ≤ 2 µM; 2: ≤ 2 µM

Quick one: give measured IC50 for CCCCCCCCCCc1ccc(-c2noc(C[C@@H]3CCCN(C(=N)N)C3)n2)cc1 [Compound 7q, 2,2,2-trifluoroacetate]
≤ 2 µM

====

Target: UniProt Q8IVW8
Sequence (Q8IVW8 1-549): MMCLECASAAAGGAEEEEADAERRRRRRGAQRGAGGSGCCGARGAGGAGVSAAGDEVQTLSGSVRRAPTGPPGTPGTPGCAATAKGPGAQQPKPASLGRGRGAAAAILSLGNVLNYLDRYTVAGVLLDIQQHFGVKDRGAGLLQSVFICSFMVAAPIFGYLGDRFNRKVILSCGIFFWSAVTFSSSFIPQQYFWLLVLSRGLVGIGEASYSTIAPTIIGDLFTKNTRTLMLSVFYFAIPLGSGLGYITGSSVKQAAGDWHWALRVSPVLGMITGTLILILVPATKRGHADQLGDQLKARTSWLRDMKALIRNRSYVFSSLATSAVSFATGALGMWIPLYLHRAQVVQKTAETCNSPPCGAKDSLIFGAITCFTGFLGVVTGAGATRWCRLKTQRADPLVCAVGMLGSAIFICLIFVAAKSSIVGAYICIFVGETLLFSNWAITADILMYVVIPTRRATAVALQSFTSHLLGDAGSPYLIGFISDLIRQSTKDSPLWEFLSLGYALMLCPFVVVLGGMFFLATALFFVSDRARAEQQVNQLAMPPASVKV
Assay: S1P transporter assay: growth of S. cerevisiae strain with forced expression of a mammalian SphK and human SPNS2
Conditions: in vitro inhibition of SPNS2; growth of S. cerevisiae strain expressing mammalian SphK and human SPNS2; compounds as their pharmaceutical salts
Structures can show the parent of a compound that is named as a salt.
For each record, write down the corresponding IC50.

Previously resolved entries follow.
compound="CCCCCCCOc1ccc2cc(-c3noc([C@@H]4CCN(C(=N)N)C4)n3)ccc2c1 [Compound 7kk, hydrochloride]" experimentalresult="≤ 2000 nM"
compound="CCCCCCCCCCc1ccc(-c2noc(C[C@@H]3CCN(C(=N)N)C3)n2)cc1 [Compound 7p, 2,2,2-trifluoroacetate]" experimentalresult="≤ 2000 nM"
compound="CCCCCCCCCCc1cccc(-c2noc([C@@H]3CCN(C(=N)N)C3)n2)c1 [Compound 7t, hydrochloride]" experimentalresult="> 2000 nM"
compound="C/C(=N\\OCc1ccc2c(c1)C(C)(C)CCC2(C)C)c1ccc(-c2noc([C@@H]3CCNC3)n2)cc1 [Compound 38h, hydrochloride]" experimentalresult="> 2000 nM"
compound="CCCCCCCOc1ccc(-c2noc([C@@H]3CCCNC3)n2)cc1C(F)(F)F [Compound 21c, hydrochloride]" experimentalresult="> 2000 nM"
compound="CCCCCCCCCCc1ccc(Nc2ccc(-c3noc([C@@H]4CCNC4)n3)cn2)cc1 [Compound 13h, hydrochloride]" experimentalresult="> 2000 nM"
compound="CCCCCCCCCc1ccc(-c2noc(C3CN(C(=N)N)C3)n2)cc1 [Compound 7c, hydrochloride]" experimentalresult="≤ 2000 nM"

// next entry
Output IC50 of C/C(=N\OCCCCc1ccccc1)c1ccc(-c2noc([C@@H]3CCNC3)n2)cc1 [Compound 38a, hydrochloride]
≤ 2000 nM

Ref: patent US12590083B2
